B1: SOAT1 (parent)
chain: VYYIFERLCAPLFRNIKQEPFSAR

Variants of: B1
Assay info: protein stability index of a GFP-peptide fusion (GPS, HEK-293T) (PSI 1-6); higher = more stable;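 also: lentivirally expressed fusions sorted by FACS into six bins by GFP to DsRed ratio, PSI derived from sequencing read proportions per bin multiplied by bin number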
Test conditions: c terminus: a fixed tail appended
// FALSE strictly below 2 in protein stability index; TRUE otherwise

- VYYIFERLCAPLFRTIKQEPFSAR [N15T]: TRUE
- HYYIFERLCAPLFRNIKQEPFSAR [V1H]: FALSE
- VYYIFERLCANLFRNIKQEPFSAR [P11N]: FALSE
- VYYIFERLCAPLFANIKQEPFSAR [R14A]: TRUE
- RYYIFERLCAPLFRNIKQEPFSAR [V1R]: TRUE
- VYYIFMRLCAPLFRNIKQEPFSAR [E6M]: TRUE
- VYYIFERLCAPLFRNIKQEPESAR [F21E]: TRUE
- VIYIFERLCAPLFRNIKQEPFSAR [Y2I]: TRUE
- VYYIFERLCAPLFRNIKQEPFSAV [R24V]: TRUE
- VYYIFERLCAHLFRNIKQEPFSAR [P11H]: TRUE
- VYYIFERLCAPLFRNIKQEPFSAK [R24K]: TRUE
